Biological target: hCTR P363A (Homo sapiens, UniProt P30988, P363A)
Construct: expressed in transfected cells
Experiment: Homologous whole cell competition binding
Conditions: homologous competition of 125I-sCT(8-32), whole cells, mean ± S.E.M., SEM
Where no end group is shown, it is not given here.
Quantity Measured: Ki (nM)
One number for each entry, in nM.

Reported Ki for VLGKLSQELHKLQTYPRTNTGSGTP-NH2 [sCT(8-32)] was 0.355

###

Molecular target: hCTR M367A (Homo sapiens, UniProt P30988, M367A)
Construct: c-Myc (N); expressed in transfected cells
Sequence (P30988 25-474 M367A): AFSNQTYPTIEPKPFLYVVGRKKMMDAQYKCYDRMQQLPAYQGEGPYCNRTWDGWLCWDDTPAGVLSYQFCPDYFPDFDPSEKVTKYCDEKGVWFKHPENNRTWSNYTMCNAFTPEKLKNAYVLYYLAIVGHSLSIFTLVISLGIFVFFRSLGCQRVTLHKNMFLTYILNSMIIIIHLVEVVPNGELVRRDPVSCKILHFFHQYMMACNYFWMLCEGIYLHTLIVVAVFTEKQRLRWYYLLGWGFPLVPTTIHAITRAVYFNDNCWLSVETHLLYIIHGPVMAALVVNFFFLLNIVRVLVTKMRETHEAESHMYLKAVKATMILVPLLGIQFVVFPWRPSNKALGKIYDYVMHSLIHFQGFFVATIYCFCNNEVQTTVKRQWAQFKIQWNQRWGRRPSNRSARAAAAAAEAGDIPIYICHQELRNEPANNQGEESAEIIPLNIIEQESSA
Experiment: Homologous whole cell competition binding
Details: homologous competition of 125I-sCT(8-32), whole cells, mean ± S.E.M., SEM
Where no end group is shown, it is not given here.
Quantity Measured: Ki (nM)
One number for each entry, in nM.

Reported Ki for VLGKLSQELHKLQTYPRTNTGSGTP-NH2 [sCT(8-32)] was 0.295
